Reference for the values: patent US9266964

subject.of.test: T1, wild type pKal catalytic domain (human, UniProt P03952 391-638, limits assumed)
T1 construct: domain: catalytic domain; also called WT cat; Domain; not shown: His tag fusion
experiment.summary: apparent Ki (Ki,app), enzyme inhibition, wild type pKal catalytic domain

>  <binder>
X115-G04 (antibody, V domains shown, also called 559A-X115-G04; 559A-X0115-G04) VH: EVQLLESGGGLVQPGGSLRLSCAASGFTFSHYIMMWVRQAPGKGLEWVSGIYSSGGITVYADSVKGRFTISRDNSKNTLYLQMNSLRAEDTAVYYCAYRRTGVPRRDEFDIWGQGTMVTVSS VL: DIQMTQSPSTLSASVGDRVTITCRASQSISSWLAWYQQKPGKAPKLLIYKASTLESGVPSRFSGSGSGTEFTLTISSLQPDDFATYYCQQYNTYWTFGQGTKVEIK

>  <Ki [nM]>
0.3

$$$$
>  <binder>
X115-A03 (antibody, V domains shown, also called 559A-X115-A03; 559A-X0115-A03) VH: EVQLLESGGGLVQPGGSLRLSCAASGFTFSHYIMMWVRQAPGKGLEWVSGIYSSGGITVYADSVKGRFTISRDNSKNTLYLQMNSLRAEDTAVYYCAWRRIGVPRRDSFDMWGQGTMVTVSS VL: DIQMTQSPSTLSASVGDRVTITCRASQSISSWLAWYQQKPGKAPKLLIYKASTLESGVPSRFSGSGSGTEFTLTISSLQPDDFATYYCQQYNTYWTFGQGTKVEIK

>  <Ki [nM]>
0.16

$$$$
